Attribution: PubChem BioAssay (NCI)

test system: SK-OV-3 ovarian; test: NCI tumour cell line growth inhibition, 48 h
Recorded measurements of TGI, one per entry

[
  {
    "COMPOUND": "COC(=O)/C(C#N)=C1\\CCC(O)N1C (stereo unspecified)",
    "MEASURED TARGET": "SK-OV-3 ovarian",
    "TGI": "> 100 µM"
  },
  {
    "COMPOUND": "Cc1c(C(=O)CC(=O)C(=O)Nc2ccc(Cl)c(Cl)c2)[n+](=O)c2ccccc2n1[O-]",
    "MEASURED TARGET": "SK-OV-3 ovarian",
    "TGI": "> 100 µM"
  },
  {
    "COMPOUND": "CC(=O)OC1CC(O)CC2=CCC3C4CCC(C(C)(O)C(O)CC5COC(=O)C5C)C4(C)CCC3C21C (stereo unspecified)",
    "MEASURED TARGET": "SK-OV-3 ovarian",
    "TGI": "> 25 µM"
  },
  {
    "COMPOUND": "Nc1cc2c3c(cccc3c1)C(=O)N(c1ccc(OCCN3CCCCC3)cc1)C2=O",
    "MEASURED TARGET": "SK-OV-3 ovarian",
    "TGI": "31.7 µM"
  },
  {
    "COMPOUND": "COC1O[C@@H]2CCN3C(=O)[C@@H](OC(=O)c4ccc([N+](=O)[O-])cc4)[C@H]1C23 (stereo partly specified)",
    "MEASURED TARGET": "SK-OV-3 ovarian",
    "TGI": "> 100 µM"
  },
  {
    "COMPOUND": "OCC1OC(Oc2cc(O)cc(/C=C\\c3ccc(O)cc3)c2)C(O)C(O)C1O (stereo unspecified)",
    "MEASURED TARGET": "SK-OV-3 ovarian",
    "TGI": "> 100 µM"
  },
  {
    "COMPOUND": "O=C(O)C1(C(=O)O)CC1(C(=O)O)C(=O)O",
    "MEASURED TARGET": "SK-OV-3 ovarian",
    "TGI": "> 100 µM"
  },
  {
    "COMPOUND": "COc1ccc2c(c1)CCc1c(-c3noc4c3CCc3cc(OC)ccc3-4)noc1-2",
    "MEASURED TARGET": "SK-OV-3 ovarian",
    "TGI": "> 100 µM"
  },
  {
    "COMPOUND": "COc1ccc(/C=C2\\CN(Cc3cn(CCCNc4ccnc5cc(Cl)ccc45)nn3)C/C(=C\\c3ccc(OC)c(OC)c3)C2=O)cc1OC",
    "MEASURED TARGET": "SK-OV-3 ovarian",
    "TGI": "11.1 µM"
  },
  {
    "COMPOUND": "COc1ccc(C(=O)N2CCc3c([nH]c4ccccc34)C2C(=O)O)o1 (stereo unspecified)",
    "MEASURED TARGET": "SK-OV-3 ovarian",
    "TGI": "> 10 µM"
  }
]

So for `COc1cc(-c2cc(=O)c3ccccc3o2)ccc1N` , the logged TGI turned out to be > 100 µM

So for `Cc1ccc([N+](=O)[O-])cc1NC(=O)C(=O)Cc1occc(=O)c1O` , the logged TGI turned out to be > 100 µM

So for COC(=O)C(=O)C(C(=O)C(=O)Nc1ccc(Cl)cc1C)c1nc2ccc(C(=O)c3ccccc3)cc2[nH]c1=O (stereo unspecified) , the logged TGI turned out to be > 100 µM

So for ClC1CCC2OOC1O2 (stereo unspecified) , the logged TGI turned out to be > 100 µM

So for `Cn1c(=O)c2c(no[n+]2[O-])n(C)c1=O` , the logged TGI turned out to be > 100 µM

So for `Oc1ccc(CNCc2ccccc2)c2cccnc12` , the logged TGI turned out to be > 76.9 µM
